Assignment: determine reported activation for the given molecules.
ASSAY_DETAILS: HSF-1 activators, primary screen, NIH3T3-HGL cells, MG132 stress, luminescence, single point (AID 504408);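 further: 0% = median of the neutral control wells and 100% = twice that signal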
CONDITION_DETAILS: NIH3T3-HGL HSF-1 luciferase reporter, MG132, 8 h; at 9 µM; hits give high values; 100% = twice DMSO control signal
Hit rate of the full screen: of about 300,000 compounds, about 5,200 (1.7%) were called active. The entries come from a sample that favours actives as a whole.
Supply the numeric figure in %, leaving out any unit text.

activation lookup needed for `O=C(c1ccncc1)N1CCN(S(=O)(=O)c2cccc([N+](=O)[O-])c2)CC1` , thanks.
4.99

activation lookup needed for `CCCCCC(=O)N1CCN(S(=O)(=O)c2ccc3c(c2)OCCCO3)CC1` , thanks.
-14

activation lookup needed for `O=C(CSc1ccc(-c2ccc(-n3cccn3)cc2)nn1)Nc1ccc([N+](=O)[O-])cc1` , thanks.
8.59

activation lookup needed for Cc1nnnn1/C(=C\c1ccccc1)C(=O)OCC(=O)N1CC2(C)CC1CC(C)(C)C2 (stereo unspecified) , thanks.
82.4

activation lookup needed for `O=C(c1ccc(F)c(S(=O)(=O)N2CCOCC2)c1)N(CCc1ccccc1)Cc1ccccc1` , thanks.
6.07

activation lookup needed for `COc1ccc(C(=O)OCC(=O)Nc2ccc3[nH]c(=O)[nH]c3c2)c(OC)c1OC` , thanks.
29.4

activation lookup needed for `O=C(COC(=O)c1ccccn1)NNC(=O)c1ccc([N+](=O)[O-])cc1` , thanks.
5.44

activation lookup needed for `Cc1cccc(Oc2c([N+](=O)[O-])c(=O)n(C)c3ccccc23)c1` , thanks.
110

activation lookup needed for `Cc1cc(C)c(-c2c(O)c3ccccc3n(C)c2=O)c(C)c1` , thanks.
-9.47

activation lookup needed for `O=C(/C=C/NCc1ccc(F)cc1)c1ccccc1` , thanks.
57.4

activation lookup needed for COc1ccc(C(=O)N2CC3(C)CC2CC(C)(C)C3)cc1OC (stereo unspecified) , thanks.
-7.35

###

ASSAY_DETAILS: HSF-1 activators, primary screen, NIH3T3-HGL cells, MG132 stress, luminescence, single point (AID 504408);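 further: 0% = median of the neutral control wells and 100% = twice that signal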
CONDITION_DETAILS: NIH3T3-HGL HSF-1 luciferase reporter, MG132, 8 h; at 9 µM; hits give high values; 100% = twice DMSO control signal
Among all 300,000 compounds or so, about 5,200 (1.7%) were called active. For the sample, actives were picked, then their nearest neighbours and some compounds at random.
OUTCOME_MEASURE: activation (%)
Supply the numeric figure in %, leaving out any unit text.

activation lookup needed for `Cc1ccc2c(NC(=O)C3CC3)cccc2n1` , thanks.
-0.793

activation lookup needed for `O=C(CCCN=C1NS(=O)(=O)c2ccccc21)OCC(=O)c1ccc(F)c(F)c1` , thanks.
-1.2

activation lookup needed for CC1CN(C(=O)c2cc(COc3c(F)cccc3F)on2)CCN1C (configuration not stated) , thanks.
52.1

activation lookup needed for `COc1cccc(N(CC(=O)Nc2cccc(N(C)S(C)(=O)=O)c2)S(C)(=O)=O)c1` , thanks.
12.3

activation lookup needed for `Cc1ccc(N(CC(=O)Nc2cccc(N(C)S(C)(=O)=O)c2)S(C)(=O)=O)cc1` , thanks.
0.04

activation lookup needed for `CCOC(=O)c1c(Cc2ccc(Cl)cc2)c[nH]c1C` , thanks.
87.7

activation lookup needed for `O=C(NNC(=O)c1ccco1)Nc1ccccc1` , thanks.
12.4

###

ASSAY_DETAILS: HSF-1 activators, primary screen, NIH3T3-HGL cells, MG132 stress, luminescence, single point (AID 504408);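 further: 0% = median of the neutral control wells and 100% = twice that signal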
CONDITION_DETAILS: NIH3T3-HGL HSF-1 luciferase reporter, MG132, 8 h; at 9 µM; hits give high values; 100% = twice DMSO control signal
Screen size: about 300,000 compounds; about 5,200 (1.7%) were called active. The list comes from a sample in which actives are over-represented; it also holds close analogues and randomly drawn compounds.
OUTCOME_MEASURE: activation (%)
Supply the numeric figure in %, leaving out any unit text.

activation lookup needed for CCN1CCN(C(c2cccnc2)c2cc(Cl)c3cccnc3c2O)CC1 (centres undefined) , thanks.
-83.7

activation lookup needed for `Cc1ccc(OCC(=O)Nc2ccc(N3CCN(C(=O)c4ccco4)CC3)cc2)c(C)c1` , thanks.
67.8

activation lookup needed for `Nn1cnnc1N/N=C/c1cc([N+](=O)[O-])c(Cl)cc1Cl` , thanks.
56.4

activation lookup needed for `CCOc1cc(C(=O)Nc2ccc(S(=O)(=O)Nc3cnc4ccccc4n3)cc2)cc(OCC)c1OCC` , thanks.
9.73

activation lookup needed for O=C1CC(c2cccc(Cl)c2)CC(O)=C1C=Nc1ccccc1 (centres undefined) , thanks.
116

activation lookup needed for `Cc1ccc(C)c(OCCC(=O)Nc2cccc(S(=O)(=O)N3CCCC3)c2)c1` , thanks.
-4.4

activation lookup needed for `C/[N+]([O-])=C\c1ccc([N+](=O)[O-])o1` , thanks.
-2.43

activation lookup needed for `Cc1ccc(CNS(=O)(=O)CCNC(=O)c2ccccc2)cc1` , thanks.
-0.388

activation lookup needed for `CCOC(=O)N1CCN(C(=O)CSc2nc(=O)n3cccc(C)c3n2)CC1` , thanks.
-0.428

###

ASSAY_DETAILS: HSF-1 activators, primary screen, NIH3T3-HGL cells, MG132 stress, luminescence, single point (AID 504408);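 further: 0% = median of the neutral control wells and 100% = twice that signal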
CONDITION_DETAILS: NIH3T3-HGL HSF-1 luciferase reporter, MG132, 8 h; at 9 µM; hits give high values; 100% = twice DMSO control signal
About 5,200 (1.7%) of roughly 300,000 compounds were called active. Shown is part of a subset that was picked to be rich in actives.
Rule: activation of 20% or more gives true (1); anything lower gives false (0).

Given `CN(c1ccccc1)S(=O)(=O)c1ccc(Cl)c(C(=O)NCCc2c[nH]c3ccccc23)c1` , state whether its activation is at least 20%.
false (0)

Given `O=C(NCCc1c[nH]c2ccccc12)c1cc2ccccc2oc1=O` , state whether its activation is at least 20%.
true (1)

Given `COc1ccc(Cl)cc1NC(=O)CN(C)C(=O)CCCc1c[nH]c2ccccc12` , state whether its activation is at least 20%.
true (1)

Given `COc1cccc(NC(=S)NC(=O)c2c(Cl)c(C)nn2C)c1` , state whether its activation is at least 20%.
true (1)

###

ASSAY_DETAILS: HSF-1 activators, primary screen, NIH3T3-HGL cells, MG132 stress, luminescence, single point (AID 504408);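 further: 0% = median of the neutral control wells and 100% = twice that signal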
CONDITION_DETAILS: NIH3T3-HGL HSF-1 luciferase reporter, MG132, 8 h; at 9 µM; hits give high values; 100% = twice DMSO control signal
In all, about 300,000 compounds went through this assay and about 5,200 (1.7%) were called active. The sample as a whole holds a higher share of actives than the screen did.
OUTCOME_MEASURE: activation (%)
Supply the numeric figure in %, leaving out any unit text.

activation lookup needed for `Cc1ccc2nc(SCC(=O)NC3CCCC3)[nH]c2c1` , thanks.
7.63

activation lookup needed for `CCc1ccccc1N(CC(=O)NCCSCc1ccco1)S(C)(=O)=O` , thanks.
6.86

activation lookup needed for `Cc1ccc(-c2nn(-c3ccccc3)cc2C(=O)NCCCN2CCCC2=O)cc1` , thanks.
-4.32

activation lookup needed for `Cc1nc(-c2ccc(F)cc2)c(CC(=O)Nc2cc(S(=O)(=O)N3CCCCC3)ccc2C)s1` , thanks.
44.2

activation lookup needed for `Cc1ccc2nc(-c3ccc(SCC(=O)Nc4cc(C)on4)nc3)[nH]c2c1` , thanks.
55.5

activation lookup needed for COC(=O)CNC(c1ccccc1Cl)c1cc(Br)ccc1NC(=O)CCN1CCOCC1 (stereo unspecified) , thanks.
57.8

activation lookup needed for COc1ccc(C(C(=O)NC(C)(C)C)N(C(=O)Cn2nnc3ccccc32)c2ccc(C(C)=O)cc2)cc1O (stereo unspecified) , thanks.
1.15

activation lookup needed for `Cc1cc(C)cc(N(CC(=O)NCCSCc2ccco2)S(C)(=O)=O)c1` , thanks.
9.37

activation lookup needed for CC(=O)Nc1ccc(NC(=O)C(C)OC(=O)C2CC(=O)N(CCc3ccccc3)C2)cc1 (stereo unspecified) , thanks.
-21.8

activation lookup needed for `CC(=O)Nc1ccc(-c2csc(NC(=O)Nc3ccccc3)n2)cc1` , thanks.
-8.14

activation lookup needed for CSCCC(NC(=O)c1ccco1)C(=O)Nc1cc(C)ccn1 (stereo unspecified) , thanks.
4.08

activation lookup needed for `COc1ccccc1NC(=O)CCN1CCN(c2ccc(Cl)cc2)CC1` , thanks.
0.381

activation lookup needed for `O=C(O)CCCCc1nc2ccccc2s1` , thanks.
13

activation lookup needed for `CCOc1ccccc1OCC(=O)Nc1ccccc1C(=O)NC1CC1` , thanks.
-12.2

activation lookup needed for `COc1cc2ccccc2cc1C(=O)N1CCOCC1` , thanks.
-5.8

activation lookup needed for Cc1ccc(C(=O)OCC(=O)N2CC(C)CC(C)C2)cc1S(=O)(=O)N1CCCCC1 (stereo unspecified) , thanks.
1.62

activation lookup needed for COc1ccc(C(C(=O)NCC2CCCO2)N(C(=O)Cn2nnc3ccccc32)c2ccc(NC(C)=O)cc2)cc1OC (stereo unspecified) , thanks.
84

activation lookup needed for `CC(C)CC(=O)N/C(N)=N/c1nc2ccccc2s1` , thanks.
10.3

activation lookup needed for `O=C(Nc1ccccc1)Nc1nc2ccccc2s1` , thanks.
61.1

activation lookup needed for `COC(=O)[C@]1(C)N[C@H](c2ccc(-c3ccc(Cl)c(Cl)c3)cc2)[C@@H]2C(=O)N(C)C(=O)[C@@H]21` , thanks.
23

activation lookup needed for CC(=O)CC[C@@H](C)O[C@@H]1OC(C)[C@H](O)CC1O (stereo partly specified) , thanks.
-8.11

activation lookup needed for `[O-][n+]1ccc(OCc2ccccc2)cc1` , thanks.
-6.48

activation lookup needed for `CN(CC(=O)Nc1ccccc1Cl)C(=O)c1ccccc1SCC(=O)N1CCCC1` , thanks.
15.5

activation lookup needed for `CCN(CC(=O)Nc1cc(Cl)ccc1C)C(=O)CN1C(=O)NC2(CCCC2)C1=O` , thanks.
-8.94

activation lookup needed for `COc1ccc(C(=O)Oc2ccc(-c3nnco3)cc2)cc1S(=O)(=O)N1CCOCC1` , thanks.
7.88

activation lookup needed for Cc1cc(=O)oc2cc(NC(=O)C(C)Oc3ccccc3)ccc12 (stereo unspecified) , thanks.
-3.4

activation lookup needed for `CCc1noc(C)c1C(=O)Oc1ccc(N(C)S(=O)(=O)c2ccc(C)c(C)c2)cc1` , thanks.
-16.6

activation lookup needed for `COc1ccc(C(=O)Nc2ccccc2C(=O)NCc2ccco2)cc1` , thanks.
10.2

activation lookup needed for `Cc1cc(NC(=O)CSC2=NS(=O)(=O)c3cc(Cl)ccc3N2)no1` , thanks.
1.14

activation lookup needed for `Nc1scc(-c2ccncc2)c1Cl` , thanks.
11.5

activation lookup needed for `Fc1ccc(-c2csc(-c3ccc(C4SCCS4)cc3)n2)cc1F` , thanks.
23.4

Reference source for all entries: PubChem BioAssay AID504408
